Reference for the values: ChEMBL document CHEMBL1142268

Kindly supply the reported IC50 values for the records listed here.
- system_under_test: Histone deacetylase
- protocol_text: Inhibition of HDAC from human HeLa cells
- Type: cell-based
- setup_conditions: read-out: IC50
Give a bare numeral; the unit nM is implied.

Prompt line: Short answer please: IC50, Histone deacetylase, entry COc1ccc(S(=O)(=O)Nc2cccc(/C=C/C(=O)NO)c2)cc1OC
Response line: 137

Prompt line: Request: O=C(/C=C/c1cccc(S(=O)(=O)NCc2ccccc2)c1)NO
Response line: 34

Prompt line: Now this one: O=C(/C=C/c1cccc(NS(=O)(=O)c2ccc(-c3ccccc3)cc2)c1)NO
Response line: 106

Prompt line: Note, next up: O=C(CCCCCNC(=O)Nc1cccc(-c2nc3cc(F)ccc3o2)c1)NO
Response line: 8

Prompt line: Another: O=C(/C=C/c1ccc(S(=O)(=O)Nc2ccc(-c3ccccc3)cc2)cc1)NO
Response line: 66

Prompt line: Now this one: O=C(CCCCCNC(=O)Nc1cccc(-c2nc3ccccc3o2)c1)NO
Response line: 8

Prompt line: Note, next up: Cc1ccc(NS(=O)(=O)c2cccc(/C=C/C(=O)NO)c2)cc1
Response line: 18

Prompt line: Follow-up item: COc1ccc(NS(=O)(=O)c2cccc(/C=C/C(=O)NO)c2)cc1OC
Response line: 23

Prompt line: Then this compound: O=C(/C=C/c1cccc(S(=O)(=O)Nc2ccc(-c3ccccc3)cc2)c1)NO
Response line: 54

Prompt line: Then what about the compound O=C(CCCCCNC(=O)Nc1cccc(-c2nc3cc(C(F)(F)F)ccc3o2)c1)NO ?
Response line: 19

Prompt line: Query O=C(CCCCS)Nc1ccccc1 next
Response line: 6200

---

- Test system: SQ20B
- protocol_text: Inhibition of human SQ20B cells
- Assay type: functional, cell-based
Consider the following compounds; for each one, report its IC50.
Could you write the number and then its unit?

Prompt line: What IC50 value was documented for this compound, CN(C)c1ccc(CNC(=O)NCCCCCCC(=O)NO)cc1 ?
Response line: 50 µM

Prompt line: Now consider CN(C)c1ccc(CNC(=O)NCCCCC(=O)NO)cc1 .
Response line: 50 µM

Prompt line: Lookup CN(C)c1ccc(CNC(=O)NCCCCCCCC(=O)NO)cc1
Response line: 50 µM

---

Please respond with reported IC50 for every item in the list.
- protocol_text: Inhibition of human CCD1059SK cells
- Assay type: functional, cell-based
A complete answer gives the number and then names the unit.

Prompt line: Please report the recorded IC50 for Nc1ccccc1NC(=O)c1ccc(CN(CCO)Cc2ccccc2)cc1 .
Response line: 19.4 µM

Prompt line: Do the same for Nc1ccccc1NC(=O)c1ccc(CN(CCO)Cc2ccc3c(c2)OCO3)cc1 please
Response line: 41.7 µM

Prompt line: Cool, now COc1ccc(CN(CCO)Cc2ccc(C(=O)Nc3ccccc3N)cc2)cc1
Response line: 18.4 µM

Prompt line: Same again, this time with Nc1ccccc1NC(=O)c1ccc(CNC(=O)OCc2cccnc2)cc1 [ENTINOSTAT]
Response line: 65 µM

Prompt line: Note, next up: Nc1ccccc1NC(=O)c1ccc(CN(CCO)Cc2ccc(F)c(F)c2)cc1
Response line: 94.8 µM

---

Target or system Histone deacetylase 1 (Homo sapiens, UniProt Q13547): recorded IC50 listed per item.

Prompt line: I am curious: what IC50 value has been reported for O=C(Cc1ccc(-c2csc(NC(=O)COc3ccccc3)n2)s1)NO ?
Response line: 0.7 µM

Prompt line: Same question, O=C(Cc1ccc(-c2csc(NC(=O)Cc3ccccc3)n2)s1)NO this time
Response line: > 0.1 µM

Prompt line: Okay, and O=C(CCc1ccccc1)Nc1ccc(C(=O)Nc2ccc(Oc3ccccc3)cc2)cc1 ?
Response line: 1.5 µM
